targetOfAssay: T1, GST-KIAA0973 PDZ domain 1 (Homo sapiens (Human)), Q9Y2H9
T1 chain: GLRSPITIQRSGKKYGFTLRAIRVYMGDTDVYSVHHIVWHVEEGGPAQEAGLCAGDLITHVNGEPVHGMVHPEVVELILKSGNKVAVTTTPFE
methodNotes: G' assay; further: key of the grades not given here

binder	Classification (A450 class)
DFRPSFKHILFRRARRGFRQ (modifications not checked) [alpha-2C Adrenergic receptor]	3
KKGTYLTDETHREVKFTSL (modifications not checked) [CD46]	2
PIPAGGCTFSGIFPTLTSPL (modifications not checked) [KIA 1481]	2
VHDAESSDEDGYDWGPATDL (modifications not checked) [zona occludens 3 (ZO-3) PL peptide]	2
ALVLIAFCIIRRRPSAYQAL (modifications not checked) [CD68]	1
